# key: entry, value: pKi
- System: PIK3CA (human) (UniProt P42336)
- Sequence (P42336 whole entry, looked up): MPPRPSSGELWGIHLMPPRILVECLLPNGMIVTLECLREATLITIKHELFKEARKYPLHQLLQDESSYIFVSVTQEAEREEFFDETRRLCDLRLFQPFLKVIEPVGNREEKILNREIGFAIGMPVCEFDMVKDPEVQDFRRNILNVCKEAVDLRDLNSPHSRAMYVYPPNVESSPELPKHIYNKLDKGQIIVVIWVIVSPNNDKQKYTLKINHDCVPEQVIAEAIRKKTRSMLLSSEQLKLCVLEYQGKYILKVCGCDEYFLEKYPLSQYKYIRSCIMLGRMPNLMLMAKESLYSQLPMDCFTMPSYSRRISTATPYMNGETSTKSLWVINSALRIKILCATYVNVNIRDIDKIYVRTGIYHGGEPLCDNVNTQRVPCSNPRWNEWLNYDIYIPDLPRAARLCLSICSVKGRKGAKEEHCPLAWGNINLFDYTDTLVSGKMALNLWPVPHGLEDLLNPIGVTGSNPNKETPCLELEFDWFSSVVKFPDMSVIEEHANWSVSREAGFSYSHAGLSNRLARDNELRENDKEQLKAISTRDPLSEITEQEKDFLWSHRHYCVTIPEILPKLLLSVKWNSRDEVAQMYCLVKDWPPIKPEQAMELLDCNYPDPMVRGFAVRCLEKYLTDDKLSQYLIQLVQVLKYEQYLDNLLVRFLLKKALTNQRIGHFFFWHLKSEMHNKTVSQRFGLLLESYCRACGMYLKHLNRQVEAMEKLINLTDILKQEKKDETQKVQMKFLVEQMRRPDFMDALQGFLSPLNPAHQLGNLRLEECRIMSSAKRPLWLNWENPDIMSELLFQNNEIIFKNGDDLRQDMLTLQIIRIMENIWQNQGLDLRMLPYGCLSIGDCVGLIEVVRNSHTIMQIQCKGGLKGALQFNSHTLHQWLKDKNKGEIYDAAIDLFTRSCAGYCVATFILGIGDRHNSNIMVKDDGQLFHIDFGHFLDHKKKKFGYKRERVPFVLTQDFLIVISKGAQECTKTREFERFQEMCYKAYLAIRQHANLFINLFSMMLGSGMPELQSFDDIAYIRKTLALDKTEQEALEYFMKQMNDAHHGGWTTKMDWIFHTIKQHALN
- Assay: Assessment of PIK3CA Kinase Activity
pKi: −log10 of the molar value.
Outcome measure: pKi

compound=Cc1nc(N)nc(-c2cccnc2Nc2cccc3[nH]ncc23)n1 outcome_measure=pKi test_result=7.48
compound=COc1ccc(Nc2ncc(CC3CCN(S(C)(=O)=O)CC3)cc2-c2nc(C)nc(N)n2)cn1 outcome_measure=pKi test_result=8.05
compound=COc1ccc(Nc2ncc(CN3CCCCC3)cc2-c2nc(C)nc(N)n2)cn1 outcome_measure=pKi test_result=6.82
compound=COc1ncc(Nc2ncc(CN3CCN(C(=O)N(C)C4CC4)CC3)cc2-c2nc(C)nc(N)n2)cc1F outcome_measure=pKi test_result=7.35
compound=COc1ccc(Nc2ncc(C3=CCOCC3)cc2-c2nc(C)nc(N)n2)cn1 outcome_measure=pKi test_result=8.30
compound=COc1ccc(Nc2ncc(CN3CC[C@@H](CO)C3)cc2-c2nc(C)nc(N)n2)cn1 outcome_measure=pKi test_result=6.56
compound="COc1ccc(Nc2ncc(C(O)C(F)(F)F)cc2-c2nc(C)nc(N)n2)cn1 (stereo not given)" outcome_measure=pKi test_result=7.48
compound=COc1ccc(Nc2ncc([C@H](O)C(C)(C)C)cc2-c2nc(C)nc3[nH]cnc23)cn1 outcome_measure=pKi test_result=7.51
compound=COc1ncc(Nc2ncc(CN3CCN(C(=O)N(C)CC(F)(F)F)CC3)cc2-c2nc(C)nc(N)n2)cc1F outcome_measure=pKi test_result=7.62
compound=COc1ccc(Nc2ncccc2-c2ncnc3[nH]cnc23)cn1 outcome_measure=pKi test_result=5.14

---

- System: PIK3CA (human)
- Assay: Assessment of PIK3CA Kinase Activity
Please respond with 1 (yes) when measured Ki is strictly beneath 0.01 µM, and with 0 (no) in all other cases.

entry_smiles=COc1ccc(Nc2ncc(CN3CCC3)cc2-c2nc(C)nc(N)n2)cn1 class="0 (no)"
entry_smiles=Cc1nc(N)nc(-c2cc(Cl)cnc2Nc2cnc(Cl)c(NS(=O)(=O)N(C)C)c2)n1 class="1 (yes)"
entry_smiles=COc1ccc(Nc2ncc([C@@H](O)C(C)(C)C)cc2-c2nc(C)nc3[nH]cnc23)cn1 class="0 (no)"
entry_smiles=COc1ccc(Nc2ncc(CN3CCN(C)CC3)cc2-c2nc(C)nc(N)n2)cn1 class="0 (no)"
entry_smiles=COc1cnc(Nc2cnc(Cl)c(NS(=O)(=O)N(C)C)c2)c(-c2nc(C)nc(N)n2)c1 class="0 (no)"

---

- System: PIK3CA (human) (UniProt P42336)
Outcome measure: Ki

entry_smiles=COc1ccc(Nc2ncc(CN3CCN(S(=O)(=O)N(C)C)CC3)cc2-c2nc(C)nc(N)n2)cn1 system="PIK3CA (human) (UniProt P42336)" test_result="0.017 µM"
entry_smiles=COc1ccc(Nc2ncc(CN3CCC(O)CC3)cc2-c2nc(C)nc(N)n2)cn1 system="PIK3CA (human) (UniProt P42336)" test_result="0.199 µM"
entry_smiles=COc1ccc(Nc2ncc(CN3CCOCC3)cc2-c2nc(C)nc(N)n2)cn1 system="PIK3CA (human) (UniProt P42336)" test_result="0.104 µM"
entry_smiles=Cc1nc(N)nc(-c2cc([C@@H](C)N3CCOCC3)cnc2Nc2cnc(Cl)c(NS(C)(=O)=O)c2)n1 system="PIK3CA (human) (UniProt P42336)" test_result="0.007 µM"
entry_smiles=COc1cnc(Nc2ccc(OC)nc2)c(-c2nc(C)nc(N)n2)c1 system="PIK3CA (human) (UniProt P42336)" test_result="0.055 µM"
